study-system: Protein cereblon/Tyrosine-protein kinase BTK (Homo sapiens, UniProt Q06187+Q96SW2)
Sequence (Q06187 2-659 limits assumed): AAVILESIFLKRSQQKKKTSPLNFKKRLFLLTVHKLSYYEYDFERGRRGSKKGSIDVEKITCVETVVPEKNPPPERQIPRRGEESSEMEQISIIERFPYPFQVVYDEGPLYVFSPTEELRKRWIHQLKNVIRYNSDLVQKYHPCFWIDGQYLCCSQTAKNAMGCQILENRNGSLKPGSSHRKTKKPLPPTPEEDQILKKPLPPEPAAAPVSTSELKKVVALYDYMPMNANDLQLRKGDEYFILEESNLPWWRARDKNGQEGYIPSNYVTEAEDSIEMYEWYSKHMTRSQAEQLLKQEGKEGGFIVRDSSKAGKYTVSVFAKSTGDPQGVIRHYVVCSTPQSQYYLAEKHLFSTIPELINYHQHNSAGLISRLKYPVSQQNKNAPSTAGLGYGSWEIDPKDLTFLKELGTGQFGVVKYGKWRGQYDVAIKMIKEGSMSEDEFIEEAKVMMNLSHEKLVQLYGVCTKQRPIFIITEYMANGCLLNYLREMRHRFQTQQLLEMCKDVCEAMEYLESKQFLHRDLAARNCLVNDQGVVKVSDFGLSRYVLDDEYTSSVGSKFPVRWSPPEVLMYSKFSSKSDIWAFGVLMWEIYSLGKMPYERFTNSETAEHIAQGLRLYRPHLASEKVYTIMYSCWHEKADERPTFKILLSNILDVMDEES
Sequence (Q96SW2 whole entry partner): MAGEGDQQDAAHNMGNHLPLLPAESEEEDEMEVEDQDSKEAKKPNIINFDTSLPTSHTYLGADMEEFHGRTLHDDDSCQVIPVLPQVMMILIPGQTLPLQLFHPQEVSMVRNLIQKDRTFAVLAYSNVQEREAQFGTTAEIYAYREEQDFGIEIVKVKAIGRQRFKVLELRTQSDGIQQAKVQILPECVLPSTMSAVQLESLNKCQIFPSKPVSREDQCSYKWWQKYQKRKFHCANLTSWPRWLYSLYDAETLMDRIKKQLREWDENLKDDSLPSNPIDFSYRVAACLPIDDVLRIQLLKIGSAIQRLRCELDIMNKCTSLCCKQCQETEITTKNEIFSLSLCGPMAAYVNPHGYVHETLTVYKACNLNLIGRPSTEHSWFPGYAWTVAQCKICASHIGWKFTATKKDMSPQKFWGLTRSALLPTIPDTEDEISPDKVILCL
protocol-summary: PROTAC activity at CRBN/BTK in human JeKo-1 cells assessed as induction of BTK degradation at 1000 nM incubated for 24 hrs by Western blotting analysis relative to control
Format: cell-based
I'd be grateful if you could share measured Activity for these entries.
Give bare numbers, in %.

Recorded Activity, per entry:
{"columns": ["molecule", "unit-spec", "Activity"],
 "data": [
  ["O=C1CCC(N2C(=O)c3ccc(N4CCC(CN5CCC(CCN[C@H]6CC[C@@H](Nc7ncnc8[nH]cc(C(=O)c9ccc(Oc%10ccccc%10)cc9Cl)c78)CC6)CC5)CC4)cc3C2=O)C(=O)N1 (stereo not given in full)", "%", 77],
  ["O=C1CCC(N2C(=O)c3ccc(N4CCC(N5CCC(N[C@H]6CC[C@@H](Nc7ncnc8[nH]cc(C(=O)c9ccc(Oc%10ccccc%10)cc9Cl)c78)CC6)CC5)CC4)cc3C2=O)C(=O)N1 (stereo not given in full)", "%", 18.5],
  ["O=C1CCC(N2C(=O)c3ccc(N4CCC(F)(CN5CCC(CC(=O)N[C@H]6CC[C@@H](Nc7ncnc8[nH]cc(C(=O)c9ccc(Oc%10ccccc%10)cc9Cl)c78)CC6)CC5)CC4)cc3C2=O)C(=O)N1 (stereo not given in full)", "%", 26]
]}

Give me Activity for each of these molecules, listed below.
1. O=C1CCC(N2C(=O)c3ccc(N4CCC(N5CCC(CN[C@H]6CC[C@@H](Nc7ncnc8[nH]cc(C(=O)c9ccc(Oc%10ccccc%10)cc9Cl)c78)CC6)CC5)CC4)cc3C2=O)C(=O)N1 (stereo not given in full)
2. O=C1CCC(N2C(=O)c3ccc(N4CCC(CN5CCC(N[C@H]6CC[C@@H](Nc7ncnc8[nH]cc(C(=O)c9ccc(Oc%10ccccc%10)cc9Cl)c78)CC6)CC5)CC4)cc3C2=O)C(=O)N1 (stereo not given in full)

42.5
62

---

study-system: Protein cereblon/Tyrosine-protein kinase BTK (Homo sapiens, UniProt Q06187+Q96SW2)
protocol-summary: PROTAC activity at CRBN/BTK in human JeKo-1 cells assessed as induction of BTK degradation at 1000 nM incubated for 24 hrs by Western blotting analysis relative to control
Assay type: cell-based
Threshold-based label: Activity under 70% gives True, Activity not under 70% gives False.

Sample answers from the record:
{"columns": ["molecule", "study-system", "label"],
 "data": [
  ["O=C1CCC(N2C(=O)c3ccc(N4CCC(CC(=O)N5CCC(CN[C@H]6CC[C@@H](Nc7ncnc8[nH]cc(C(=O)c9ccc(Oc%10ccccc%10)cc9Cl)c78)CC6)CC5)CC4)cc3C2=O)C(=O)N1 (stereo not given in full)", "Protein cereblon/Tyrosine-protein kinase BTK (Homo sapiens, UniProt Q06187+Q96SW2)", "True"],
  ["O=C1CCC(N2C(=O)c3ccc(N4CCC(N[C@H]5CC[C@@H](Nc6ncnc7[nH]cc(C(=O)c8ccc(Oc9ccccc9)cc8Cl)c67)CC5)CC4)cc3C2=O)C(=O)N1 (stereo not given in full)", "Protein cereblon/Tyrosine-protein kinase BTK (Homo sapiens, UniProt Q06187+Q96SW2)", "True"],
  ["O=C1CCC(N2Cc3ccc(N4CCC(CCN5CCC(CC(=O)N[C@H]6CC[C@@H](Nc7ncnc8[nH]cc(C(=O)c9ccc(Oc%10ccccc%10)cc9Cl)c78)CC6)CC5)CC4)cc3C2=O)C(=O)N1 (stereo not given in full)", "Protein cereblon/Tyrosine-protein kinase BTK (Homo sapiens, UniProt Q06187+Q96SW2)", "False"],
  ["O=C1CCC(N2C(=O)c3ccc(N4CCC(CN5CCCC(N[C@H]6CC[C@@H](Nc7ncnc8[nH]cc(C(=O)c9ccc(Oc%10ccccc%10)cc9Cl)c78)CC6)C5)CC4)cc3C2=O)C(=O)N1 (stereo not given in full)", "Protein cereblon/Tyrosine-protein kinase BTK (Homo sapiens, UniProt Q06187+Q96SW2)", "False"]
]}

Query molecule follows.
Could you please tell me whether Activity recorded for O=C1CCC(N2C(=O)c3ccc(N4CC(N5CCC(CN[C@H]6CC[C@@H](Nc7ncnc8[nH]cc(C(=O)c9ccc(Oc%10ccccc%10)cc9Cl)c78)CC6)CC5)C4)cc3C2=O)C(=O)N1 (stereo not given in full) is less than 70%? True

---

System: OCI-Ly10
protocol-summary: Antiproliferative activity against human OCILY10 cells assessed as inhibition of cell growth measured after 3 days by CCK-8 assay
Format: functional, cell-based
stated-conditions: OCI-Ly10, 72 h
reported-metric: IC50 (nM)
Answers are plain numbers, in nM.

{"columns": ["compound", "IC50 (nM)"],
 "data": [
  ["O=C1CCC(N2C(=O)c3cc(F)c(N4CCC(CCN5CCC(CC(=O)N[C@H]6CC[C@@H](Nc7ncnc8[nH]cc(C(=O)c9ccc(Oc%10ccccc%10)cc9Cl)c78)CC6)CC5)CC4)cc3C2=O)C(=O)N1 (stereo partly specified)", 28.2],
  ["C=CC(=O)N1CCC[C@@H](n2nc(-c3ccc(Oc4ccccc4)cc3)c3c(N)ncnc32)C1 [IBRUTINIB]", 4.5],
  ["O=C1CCC(N2Cc3cc(N4CCC(CCN5CCC(CC(=O)N[C@H]6CC[C@@H](Nc7ncnc8[nH]cc(C(=O)c9ccc(Oc%10ccccc%10)cc9Cl)c78)CC6)CC5)CC4)c(F)cc3C2=O)C(=O)N1 (stereo partly specified)", 2.3],
  ["O=C1CCC(N2C(=O)c3ccc(N4CCC(CCN5CCC(CC(=O)N[C@H]6CC[C@@H](Nc7ncnc8[nH]cc(C(=O)c9ccc(Oc%10ccccc%10)cc9Cl)c78)CC6)CC5)CC4)cc3C2=O)C(=O)N1 (stereo partly specified)", 15.4],
  ["O=C1CCC(N2Cc3cc(N4CCC(CCN5CCC(CC(=O)N[C@H]6CC[C@@H](Nc7ncnc8[nH]cc(C(=O)c9ccc(Oc%10ccccc%10)cc9Cl)c78)CC6)CC5)CC4)ccc3C2=O)C(=O)N1 (stereo partly specified)", 15.7]
]}

# context switch: different compound, same IC50
Data request, read-out IC50, for O=C1CCC(N2Cc3ccc(N4CCC(CCN5CCC(CC(=O)N[C@H]6CC[C@@H](Nc7ncnc8[nH]cc(C(=O)c9ccc(Oc%10ccccc%10)cc9Cl)c78)CC6)CC5)CC4)cc3C2=O)C(=O)N1 (stereo partly specified) 5.9

---

I'd be grateful if you could share measured Activity for these entries.
study-system: Protein cereblon/Tyrosine-protein kinase BTK (Homo sapiens, UniProt Q06187+Q96SW2)
protocol-summary: PROTAC activity at CRBN/BTK in human JeKo-1 cells assessed as induction of BTK degradation at 100 nM incubated for 24 hrs by Western blotting analysis relative to control
Format: cell-based
One number for each entry, in %.

Give me Activity for each of these molecules, listed below.
1. O=C1CCC(N2C(=O)c3ccc(N4CCC(N5CCC(CN[C@H]6CC[C@@H](Nc7ncnc8[nH]cc(C(=O)c9ccc(Oc%10ccccc%10)cc9Cl)c78)CC6)CC5)CC4)cc3C2=O)C(=O)N1 (stereo not given in full)
2. O=C1CCC(N2C(=O)c3ccc(N4CCC(CN5CCC(C(=O)N[C@H]6CC[C@@H](Nc7ncnc8[nH]cc(C(=O)c9ccc(Oc%10ccccc%10)cc9Cl)c78)CC6)CC5)CC4)cc3C2=O)C(=O)N1 (stereo not given in full)
3. O=C1CCC(N2C(=O)c3ccc(N4CCC(F)(CN5CCC(CC(=O)N[C@H]6CC[C@@H](Nc7ncnc8[nH]cc(C(=O)c9ccc(Oc%10ccccc%10)cc9Cl)c78)CC6)CC5)CC4)cc3C2=O)C(=O)N1 (stereo not given in full)
4. O=C1CCC(N2C(=O)c3ccc(N4CC(N5CCC(CN[C@H]6CC[C@@H](Nc7ncnc8[nH]cc(C(=O)c9ccc(Oc%10ccccc%10)cc9Cl)c78)CC6)CC5)C4)cc3C2=O)C(=O)N1 (stereo not given in full)
5. O=C1CCC(N2C(=O)c3ccc(N4CCC(CN5CCC(CC(=O)N[C@H]6CC[C@@H](Nc7ncnc8[nH]cc(C(=O)c9ccc(Oc%10ccccc%10)cc9Cl)c78)CC6)CC5)CC4)cc3C2=O)C(=O)N1 (stereo not given in full)
6. O=C1CCC(N2C(=O)c3ccc(N4CCC(CN5CCCC(N[C@H]6CC[C@@H](Nc7ncnc8[nH]cc(C(=O)c9ccc(Oc%10ccccc%10)cc9Cl)c78)CC6)C5)CC4)cc3C2=O)C(=O)N1 (stereo not given in full)

1: 39; 2: 61; 3: 28.5; 4: 30; 5: 79.5; 6: 31.5

---

study-system: Protein cereblon/Tyrosine-protein kinase BTK (Homo sapiens, UniProt Q06187+Q96SW2)
protocol-summary: PROTAC activity at CRBN/BTK in human JeKo-1 cells assessed as induction of BTK degradation at 100 nM incubated for 24 hrs by Western blotting analysis relative to control
Type: cell-based
reported-metric: Activity (%)
Answers are plain numbers, in %.

Recorded Activity, per entry:
{"columns": ["molecule", "unit-spec", "experimental-value"],
 "data": [
  ["O=C1CCC(N2C(=O)c3ccc(N4CCC(CN5CCC(CCN[C@H]6CC[C@@H](Nc7ncnc8[nH]cc(C(=O)c9ccc(Oc%10ccccc%10)cc9Cl)c78)CC6)CC5)CC4)cc3C2=O)C(=O)N1 (some centres undefined)", "%", 57],
  ["O=C1CCC(N2C(=O)c3ccc(N4CCC(CCN5CCC(CN[C@H]6CC[C@@H](Nc7ncnc8[nH]cc(C(=O)c9ccc(Oc%10ccccc%10)cc9Cl)c78)CC6)CC5)CC4)cc3C2=O)C(=O)N1 (some centres undefined)", "%", 76],
  ["O=C1CCC(N2C(=O)c3ccc(N4CCC(N5CCC(N[C@H]6CC[C@@H](Nc7ncnc8[nH]cc(C(=O)c9ccc(Oc%10ccccc%10)cc9Cl)c78)CC6)CC5)CC4)cc3C2=O)C(=O)N1 (some centres undefined)", "%", 15]
]}

# context switch: different molecule, same Activity
Data request, read-out Activity, for O=C1CCC(N2C(=O)c3ccc(N4CCC(CCN5CCC(CC(=O)N[C@H]6CC[C@@H](Nc7ncnc8[nH]cc(C(=O)c9ccc(Oc%10ccccc%10)cc9Cl)c78)CC6)CC5)CC4)cc3C2=O)C(=O)N1 (some centres undefined) 85
